# Tested on: Carbonic anhydrase 2 (Homo sapiens) (UniProt P00918)
# Experiment notes: compounds binding carbonic anhydrase 2 – biochemical, small-molecule microarray, Alexa647-labelled CAII, profiling panel (AID 1122)
# Assay conditions: CAII-A647 binding fluorescence, higher = more signal
Entry flag: rule met if composite z-score reaches 0.5; rule not met if it does not.

- Cc1ccc(F)cc1S(=O)(=O)N[C@@H]1CCN(Cc2ccc(C(F)(F)F)cc2)C1: rule not met
- CC(C)N1C(=O)c2ccccc2[C@](C)(C(=O)NC2CC2)[C@@H]1c1ccc(CO)cc1: rule met
- CN1C(=O)C2C=CC(C(O)C3=C[C@H]4C[C@@H](C3)C4(C)C)N(Nc3ccc([N+](=O)[O-])cc3[N+](=O)[O-])C2C1=O (stereo not given in full): rule met
- CC1CC/C=C\[C@H]2OC34C=CCN(Cn5nnc6ccccc65)C(=O)[C@H]3N(CCCO)C(=O)[C@@H]4C2C(=O)O1 (stereo not given in full): rule met
- CCOC(=O)C[C@H]1[C@H](OC(=O)c2ccccc2-c2ccccc2)[C@@H](NC(=O)c2ccc(-c3ccccc3)cc2)c2cc(OCCCO)ccc2N1C(=O)c1ccccc1: rule not met
- C=CCC(OC(C)=O)[C@@H]1[C@@H](N(Cc2ccc(-c3cccc(C(F)(F)F)c3)o2)C(=O)Cc2ccc(OC)cc2)c2cc(OCCCO)ccc2N1C(=O)Cc1ccc(OC)cc1 (stereo not given in full): rule not met
- COC(=O)c1c2oc(c1C(=O)OC)C(=O)N[C@H](Cc1ccccc1)Cn1nncc1C1(CCCCC1)NC(=O)N[C@H](CO)CC2: rule not met
- O[C@@H](Cc1ccccc1)[C@@H](/C=C/c1ccccc1)NCc1ccccc1Br: rule not met
- COC(=O)[C@@]1(Cc2ccc(OC)cc2)[C@H]2c3cc(C(=O)N4CCCC4)n(CCN4CCOCC4)c3C[C@H]2CN1C(=O)c1ccccc1: rule met
- [N-]=[N+]=NCc1ccccc1[C@H]1OC(c2ccc(OCCCO)cc2)=N[C@@]1(Cc1ccccc1)C(=O)NCC(O)CO (stereo not given in full): rule met
- O=C1NC(=O)C2C1C=CC(C(O)c1cccs1)N2Nc1ccccn1 (stereo not given): rule met
- C=C(C(=O)CC[C@H](OC(=O)c1cccnc1)c1ccccc1OCCO)C(C)C: rule met
- O=C(NCc1ccccc1)[C@@H]1c2ccccc2C(=O)N(Cc2cc(F)cc(C(F)(F)F)c2)[C@H]1c1ccc(CO)cc1: rule met
- Cc1ccc(S[C@]2(C(=O)NCC(F)(F)F)CC(=O)N(C3Cc4ccccc4C3)[C@@H]2c2ccc(CO)cc2I)cc1: rule met

----------
# Tested on: XIP peptide (Xip251-270)
# Experiment notes: compounds binding XIP fragment 251-270 – biochemical, small-molecule microarray, fluorescence 635/667 nm, 0.5 µg/mL protein, primary screen (AID 1183)
# Assay conditions: fluorescence 635 nm, higher = more signal
Decide by composite z-score: equal to or exceeding 0.5 means T, less means F.

- CC(=O)NCCCC[C@@H]1NC(=O)[C@@H]2C[C@H](C(=O)NCCCCCC[N+](C)(C)C)[C@H](c3cccc(OCCO)c3)N2C1=O: F
- COc1ccc(CCNC(=O)[C@@]2(C)c3ccccc3C(=O)N(Cc3ccccc3)[C@H]2c2ccc(CO)cc2)cc1: T
- CCCCCCC#C[Si](O[C@H](c1ccccc1)c1cn([C@H](C)c2ccccc2)nn1)(C(C)C)C(C)C: F
- O=C1O[C@@H](c2ccccc2)[C@@H](c2ccccc2)N2[C@@H](c3ccc(O)cc3)[C@]3(C(=O)Nc4ccc(C#CCCO)cc43)[C@@H](C(=O)O)[C@H]12: T
- [N-]=[N+]=NCc1ccccc1C[C@]1(C(=O)N2CCOCC2)N=C(c2ccc(OCCCO)cc2)O[C@H]1c1ccccc1: F
- CC1(C)C(=O)C(c2ccccc2)=C2CN3C(=O)N(CCc4ccccc4)C(=O)C3(Cc3ccccc3)C=C21 (configuration not stated): F
